Test system: Tenacibaculum maritimum ATCC 43397
Experiment: Antibacterial disk diffusion
Type: cell-based
Conditions: Tenacibaculum maritimum ATCC 43397, footnote *
measured.parameter: Inhibition zone diameter (disk diffusion)
Could you give the number and then its unit, please?

# input State its Inhibition zone diameter (disk diffusion) for this compound: C[C@H](CCC(=O)N1CCOCC1)[C@H]1CC[C@H]2[C@@H]3CC[C@@H]4C[C@H](O)CC[C@]4(C)[C@H]3C[C@H](O)[C@]12C
# output 10 mm

# input State its Inhibition zone diameter (disk diffusion) for this compound: C[C@H](CCC(=O)N1CCN(C(=O)CC[C@H](C)[C@@H]2CC[C@@H]3[C@H]4CC[C@H]5C[C@@H](O)CC[C@@]5(C)[C@@H]4C[C@@H](O)[C@]32C)CC1)[C@H]1CC[C@H]2[C@@H]3CC[C@@H]4C[C@H](O)CC[C@]4(C)[C@H]3C[C@H](O)[C@]12C
# output 10 mm
